# method.summary: CREB reporter modulators under forskolin, primary screen, cell-based, PC12, CRE-LacZ reporter, forskolin-stimulated (AID 1146);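 also: PC12 cells with 6xCRE LacZ reporter stimulated by forskolin 10 µM; beta-galactosidase reporter signal reflecting CREB driven transcription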
# setup.conditions: luminescence, 4.5 h, higher = more signal, called active from +8 up or from −8 down
parameter.measured: z-score
Respond using a number only.

*Q* What does the data say about its z-score? Entry: Cc1ccc(S[C@]2(C(=O)NCC(C)C)CC(=O)N(C3Cc4ccccc4C3)[C@@H]2c2ccc(CO)cc2I)cc1
*A* 1.42

*Q* What does the data say about its z-score? Entry: CC(=O)NCCCC[C@@H]1NC(=O)[C@H]2C[C@@H](C(=O)NCCCCCNC(=O)CS)[C@@H](c3cccc(OCCO)c3)N2C1=O
*A* 0.908

*Q* What does the data say about its z-score? Entry: O=C1C[C@@](C(=O)NCC(F)(F)F)(c2ccc([N+](=O)[O-])cc2)[C@@H](c2ccc(CO)cc2)N1CC12CC3CC(CC(C3)C1)C2
*A* -1.01

*Q* What does the data say about its z-score? Entry: CC(C)C(=C=CC[C@H](O)c1cccc(OCCO)c1)CCO
*A* -0.253

*Q* What does the data say about its z-score? Entry: NC(=O)[C@H]1[C@@H]2C(=O)O[C@@H](c3ccccc3)[C@@H](c3ccccc3)N2[C@@H](c2ccc(O)cc2)[C@]12C(=O)Nc1ccccc12
*A* 0.272

*Q* What does the data say about its z-score? Entry: COCCOC(=O)N1C(=O)[C@@]2(c3cc(C#CCCO)ccc31)[C@H](C(=O)N1CCCCCCC1)[C@H]1C(=O)O[C@H](c3ccccc3)[C@H](c3ccccc3)N1[C@@H]2c1ccccc1OCCO
*A* -0.823

*Q* What does the data say about its z-score? Entry: CC(=O)N1CC(C(O)C2C=CC3C(=O)NC(=O)C3N2Nc2ccc(Cl)cc2Cl)c2ccccc21 (configuration not stated)
*A* -0.584

###

# method.summary: binders of probe aFGF2 on microarray, primary screen, stem cell growth factor project, biochemical, small-molecule microarray, fluorescence 635/667 (AID 1067);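 also: measures binding of biotinylated aFGF2 protein to printed compounds on slides; z-score merges feature fluorescence and signal-to-noise across triplicate slides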
# setup.conditions: higher = more signal
Mark 1.0 for reported composite z-score of 0.03 or greater; mark 0.0 for anything smaller.

molecule	class.label
COCCOC(=O)N1C(=O)[C@@]2(c3cc(C#CC4=CCCCC4)ccc31)[C@H](c1ccc(O)cc1)N1[C@H](c3ccccc3)[C@H](c3ccccc3)OC(=O)[C@H]1[C@@H]2C(=O)NC[C@H](O)c1ccccc1	0.0

*Q* Item C=C(COC)C(=O)CC[C@H](OC(C)=O)c1ccc(OCCO)cc1 with composite z-score of 0.03 or above?
*A* 0.0

*Q* Item CO[C@H]1O[C@H](CO)[C@@H](OC(=O)Nc2cccc(F)c2)[C@H](OC(=O)Nc2ccccc2-c2ccccc2)[C@H]1OC(=O)Nc1ccccc1-c1ccccc1 with composite z-score of 0.03 or above?
*A* 1.0

*Q* Item Cc1ccc(C(C)CC(O)C2C=CC3C(=O)N(c4ccccc4)C(=O)C3N2Nc2ccc(C#N)cc2)o1 (configuration not stated) with composite z-score of 0.03 or above?
*A* 1.0

*Q* Item COC(=O)[C@@]1(Cc2ccc(OC)cc2)[C@H]2c3cc(C(=O)N4CCCC4)n(Cc4ccc(S(C)(=O)=O)cc4)c3C[C@H]2CN1C(=O)c1ccccc1 with composite z-score of 0.03 or above?
*A* 1.0

*Q* Item COCCOC(=O)N1C(=O)[C@@]2(c3cc(C#CC4(O)CCCCCC4)ccc31)[C@H](c1ccc(OCCO)cc1)N1[C@H](c3ccccc3)[C@H](c3ccccc3)OC(=O)[C@H]1[C@@H]2C(=O)Nc1nc2ccccc2s1 with composite z-score of 0.03 or above?
*A* 0.0

*Q* Item Cc1nc2cc(Br)ccc2c(=O)n1Cc1cccc(O)c1 with composite z-score of 0.03 or above?
*A* 0.0

###

# method.summary: binders of probe aHhip on microarray, primary screen, stem cell growth factor project, biochemical, small-molecule microarray, fluorescence 635/667 (AID 1087);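 also: score merges spot fluorescence at 667nm with spot signal to noise ratio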
# setup.conditions: higher = more signal
parameter.measured: composite z-score
Respond using a number only.

>>> df
                                   compound  observed_value
0  CN(C)C(=O)[C@]1(CCS(=O)(=O)c2ccccc2)N=C(c2ccc(OCCCO)cc2)O[C@@H]1c1ccccc1          -0.236

*Q* What does the data say about its composite z-score? Entry: CC(C)N1CC=CC23O[C@@H]4/C=C\CCCOC(=O)C4[C@H]2C(=O)N(CCCCCCO)[C@@H]3C1=O (some centres undefined)
*A* 0.139

*Q* What does the data say about its composite z-score? Entry: [N-]=[N+]=Nc1ccccc1C[C@]1(C(=O)O)N=C(c2ccc(OCCCO)cc2)O[C@H]1c1ccccc1
*A* -0.199

*Q* What does the data say about its composite z-score? Entry: CC(C)c1ccc(NN2C(C(O)Cc3ccccc3)C=CC3C(=O)N(c4ccccc4)C(=O)C32)cc1 (centres undefined)
*A* -0.0645

###

# Test system: Inhibin beta A chain (activin A)
# method.summary: INHBA (activin A) binders on microarrays, primary screen, biochemical, small-molecule microarray, 635 nm fluorescence scan (AID 1107);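 also: mouse activin A protein probed at 4.33 µg/mL on printed slides; score merges bound-protein fluorescence near 667 nm with spot signal-to-noise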
# setup.conditions: small-molecule microarray binding, higher = more signal
parameter.measured: composite z-score
Respond using a number only.

// worked examples, composite z-score included
compound	composite z-score
CN1C(=O)C2C(C1=O)C1C=C(CCCO)C2C(c2cccs2)N1Cc1cc2c(cc1Br)OCO2 (stereo not given)	1.51
C=C(/C(=C/C[C@@H](OC(C)=O)c1ccc(CO)o1)c1cc(C(=O)OC)ccc1OC)C(C)C	0.995
C=C(CCCC)C(=O)CC[C@H](OC(=O)c1ccccc1-c1ccccc1C(=O)O)c1ccccc1OCCO	1.28
NCCCCCNC(=O)[C@H]1C[C@H]2C(=O)N[C@@H](Cc3ccccc3)C(=O)N2[C@H]1c1ccc(O)cc1	1.39
COCCOC(=O)N1C(=O)[C@@]2(c3cc(C#CC4(O)CCCCCC4)ccc31)[C@H](C(=O)N1CCN(c3ncccn3)CC1)[C@H]1C(=O)O[C@H](c3ccccc3)[C@H](c3ccccc3)N1[C@@H]2c1ccccc1OCCO	0.521
COC(=O)[C@@]1(Cc2ccc(OC)cc2)[C@H]2c3cc(C(=O)N4CCCC4)n(Cc4ccc(OC(F)(F)F)cc4)c3C[C@H]2CN1C(=O)c1ccccc1	0.891

*Q* What does the data say about its composite z-score? Entry: COCCCNC(=O)[C@@]1(Sc2ccc(C)cc2)CC(=O)N(C(C)C)[C@@H]1c1ccc(CO)cc1I
*A* 0.978

*Q* What does the data say about its composite z-score? Entry: C=CCNC(=O)[C@H]1[C@@H]2C(=O)O[C@@H](c3ccccc3)[C@@H](c3ccccc3)N2[C@@H](c2ccc(OCCO)cc2)[C@]12C(=O)Nc1ccc(C#CCNC(N)=O)cc12
*A* 0.624

*Q* What does the data say about its composite z-score? Entry: C[C@]1(C(=O)NCCN2CCOCC2)c2ccccc2C(=O)N(Cc2cc(F)cc(C(F)(F)F)c2)[C@H]1c1ccc(CO)cc1
*A* 0.59

*Q* What does the data say about its composite z-score? Entry: CCOC(=O)C1=CC[C@@H](c2ccccc2)N(S(=O)(=O)c2ccc(C)cc2)[C@H]1C=Cc1ccccc1
*A* 0.58

*Q* What does the data say about its composite z-score? Entry: CC1(C)C(=O)C(c2ccccc2)=C2CN3C(=O)N(CCc4ccccc4)C(=O)C3(Cc3ccc(C(F)(F)F)cc3)C=C21 (stereo not given)
*A* 0.721

*Q* What does the data say about its composite z-score? Entry: [N-]=[N+]=NCc1ccccc1[C@H]1OC(c2ccc(OCCCO)cc2)=N[C@@]1(Cc1ccccc1)C(=O)NCCN1CCOCC1
*A* 0.768

*Q* What does the data say about its composite z-score? Entry: C=C(CCCC)C(=O)CC[C@H](OC(C)=O)c1ccc(OCCO)cc1
*A* -0.146

*Q* What does the data say about its composite z-score? Entry: COC(=O)C1=CC(CCCO)=CC(C)N(Cc2cccc(OC(F)(F)F)c2)C=C1C(=O)OC (stereo not given)
*A* 0.383

*Q* What does the data say about its composite z-score? Entry: COC(=O)[C@@]1(Cc2ccccc2CN=[N+]=[N-])N=C(c2ccc(OCCCO)cc2)O[C@H]1c1ccccc1CN=[N+]=[N-]
*A* -0.0879

###

# method.summary: basal 3T3-L1 adipocyte mitochondrial potential changes, profiling panel, cell-based, JC-1 fluorescence, 3T3-L1 adipocytes, 24 h, 100 nL compound (AID 1168); also: test concentration not given here
# setup.conditions: JC-1 mitochondrial fluorescence, higher = more signal, called active from +8 up or from −8 down
Classes (z-score): bottom bin = under -0.5, middle bin = from -0.5 up to 0.5, top bin = 0.5 and over

*Q* Sort into band: C=C[C@@H](OC)[C@H](OC(=O)Nc1ccc(SC)cc1)c1ccc(OCCO)cc1
*A* middle bin

*Q* Sort into band: CN1C(=O)C2C(C1=O)C1C=C(CCCO)C2C(C2CC2)N1Cc1cc2c(cc1Br)OCO2 (stereo not given)
*A* bottom bin

*Q* Sort into band: Cc1ccc(F)cc1S(=O)(=O)N[C@@H]1CCN(Cc2cccc3[nH]ccc23)C1
*A* bottom bin

*Q* Sort into band: COCC1=C2[C@@H](CCc3ccccc3)OB(O)C[C@@H]2[C@@H]2C(=O)N(C)C(=O)[C@@H]2C1
*A* middle bin
